# Test system: OVCAR-4 ovarian
# ASSAY_DETAILS: NCI tumour cell line growth inhibition, 48 h
Below: a set of entries, each annotated with reported TGI.

INSERT INTO measurements (compound, meas_value) VALUES
  ('COC(=O)C1C(O)C(C(=O)OC)C(C)N(C)C1C (stereo unspecified)', '> 100 µM'),
  ('O=c1ccn(C2OC(CO)C(P(=O)(O)O)C2O)c(=O)[nH]1 (stereo unspecified)', '> 100 µM'),
  ('COC(=O)c1cc2c(cc1CC1Cc3cc4c(cc3C1)CCC4)CCC2', '> 100 µM'),
  ('O=C(O)c1cc(-c2ccc3c(O)c(O)ccc3c2)ccc1O', '27 µM'),
  ('C(/C=C(\Nc1ccccc1)C12CC3CC(CC(C3)C1)C2)=Nc1ccccc1', '48.8 µM');

In the following, a different compound is considered.
Q: What TGI value was documented for this compound, Nc1nc(-c2ccc(Cl)c([N+](=O)[O-])c2)cs1 ?
Result: > 100 µM
